All figures here come from patent EP4603105A1.

target: GDP-bound KRAS wild-type protein (Homo sapiens, UniProt P01116); test: Binding to KRAS by surface plasmon resonance (SPR), dissociation constant KD; conditions: 1:1 binding model
Sequence (P01116 1-188 isoform P01116-2): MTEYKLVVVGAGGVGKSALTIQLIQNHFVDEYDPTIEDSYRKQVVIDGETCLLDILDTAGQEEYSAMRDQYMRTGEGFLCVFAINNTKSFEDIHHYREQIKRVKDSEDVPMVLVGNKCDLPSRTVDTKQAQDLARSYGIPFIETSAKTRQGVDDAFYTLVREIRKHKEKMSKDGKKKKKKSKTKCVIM
pKd: −log10 of the molar value.

>  <compound>
CCC(CC)[C@H]1C(=O)N(C)[C@H](C(=O)N(C)C)CC(=O)N(C)[C@@H](COC)C(=O)N[C@@H]([C@@H](C)CC)C(=O)N(C2CC2)CC(=O)N(C)[C@H]2C/C=C\CCN(C2=O)[C@@H](CC2CCC(F)(F)CC2)C(=O)N(C)CC(=O)N[C@@H](CCc2cc(F)c(C(F)(F)F)c(F)c2)C(=O)N2C[C@H](OC3CCC3)C[C@H]2C(=O)NC2(CC(C)(C)C2)C(=O)N1C [PP2615]

>  <experimental_system>
GDP-bound KRAS wild-type protein (Homo sapiens, UniProt P01116)

>  <pKd>
8.70

$$$$
>  <compound>
CCO[C@@H]1C[C@H]2C(=O)NC3(CC(C)(C)C3)C(=O)N(C)[C@@H](C3CCCC3)C(=O)N(C)[C@H](C(=O)N(C)CC)CC(=O)N(C)[C@@H]([C@H](C)OC)C(=O)N[C@@H]([C@@H](C)CC)C(=O)N3CCC[C@H]3C(=O)N(C)[C@H]3C/C=C\CCN(C3=O)[C@@H](Cc3ccc(C)cc3)C(=O)N(C)CC(=O)N[C@@H](CCc3cc(F)c(C(F)(F)F)c(F)c3)C(=O)N2C1 [PP3163]

>  <experimental_system>
GDP-bound KRAS wild-type protein (Homo sapiens, UniProt P01116)

>  <pKd>
8.74

$$$$
>  <compound>
CC[C@H](C)[C@@H]1NC(=O)[C@@H]2CCCc3ccc(cc3)C[C@@H](C(=O)N(C)CC(=O)N[C@@H](CCc3ccc(C(F)(F)F)c(OC)c3)C(=O)N3C[C@H](OC(C)C)C[C@H]3C(=O)NC3(CC(C)(C)C3)C(=O)N(C)[C@@H](C3CCCC3)C(=O)N(C)[C@H](C(=O)N(C)CC)CC(=O)N2C)N2CC/C=C\C[C@@H](C2=O)N(C)C(=O)CN(C)C1=O [PP3084]

>  <experimental_system>
GDP-bound KRAS wild-type protein (Homo sapiens, UniProt P01116)

>  <pKd>
9.92

$$$$
